Assignment: determine reported TbrCatL Inhibition 0’ for the given molecules.
molecular target: TbrCatL (Trypanosoma brucei rhodesiense); construct: Conor Caffrey (University of California San Diego); assay: TbrCatL enzymatic inhibition assay (cleavage of fluorogenic substrate Z-FR-AMC); format: biochemical; details: 0’ (no pre-incubation); sheet Screening results;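 further: at 5 µM compound concentration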
Sequence (Q95PM0 entry or part of it): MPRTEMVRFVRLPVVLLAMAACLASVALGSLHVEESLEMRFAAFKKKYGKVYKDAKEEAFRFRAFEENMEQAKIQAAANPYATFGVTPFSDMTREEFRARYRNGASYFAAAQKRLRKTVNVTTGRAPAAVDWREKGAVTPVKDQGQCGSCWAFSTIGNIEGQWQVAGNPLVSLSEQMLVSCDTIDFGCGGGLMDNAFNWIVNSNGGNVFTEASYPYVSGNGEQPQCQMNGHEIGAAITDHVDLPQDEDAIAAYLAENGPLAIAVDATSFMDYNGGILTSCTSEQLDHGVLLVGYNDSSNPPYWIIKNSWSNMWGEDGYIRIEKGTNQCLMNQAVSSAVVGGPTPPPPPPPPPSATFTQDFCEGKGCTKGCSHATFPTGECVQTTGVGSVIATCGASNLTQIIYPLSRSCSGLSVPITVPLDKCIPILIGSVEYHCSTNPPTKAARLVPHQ
Please reply with the bare figure in % and do not write the unit itself.

Hello, please tell me recorded TbrCatL Inhibition 0’ for this one: COc1ccc(-c2cc(NC(=O)c3ccc(F)cc3Cl)ccc2OC)cc1 [MMV676526]
-15

Fill in reported TbrCatL Inhibition 0’ for this entry: O=C(NC1=NCCS1)c1sc2cc(F)ccc2c1Cl [MMV676584]
-0.5

Give the measured TbrCatL Inhibition 0’ for Cc1ccc2[nH]c3c(NCCN(C)C)ncnc3c2c1 [MMV006372]
10

Tell me TbrCatL Inhibition 0’ reported for O=C(Nc1ccc2c(c1)B(O)OC2)c1ccccc1C(F)(F)F [MMV652003]
-5.6

Identify TbrCatL Inhibition 0’ associated with the molecule CCC(Sc1nc2ccccc2o1)C(=O)Nc1nccs1 (stereo not shown) [MMV676383]
10

For the molecule Cc1cc2ccccc2n1CC(=O)N1CC(C(=O)N2CCCCC2)Oc2ccccc21 (stereo not shown) [MMV020520] , report TbrCatL Inhibition 0’.
1.6

Read off the recorded TbrCatL Inhibition 0’ for CC1COC(Cn2cncn2)(c2ccc(Oc3ccc(Cl)cc3)cc2Cl)O1 (stereo not shown) [MMV688943]
15

Give a short answer stating reported TbrCatL Inhibition 0’ for CC(C)C(NC(=O)Cc1cccc2ccccc12)C(=O)Nc1cccc(C#N)c1 (stereo not shown) [MMV020591] .
-8

Give recorded TbrCatL Inhibition 0’. COc1ccccc1OCCCCn1c(C2CC2)nc2ccccc21 [MMV676474]
-3.8

Report measured TbrCatL Inhibition 0’; entry is Cc1nc2ccccn2c1C(=O)NCc1ccc(Cl)cc1 [MMV012074]
-0.2

====

biological target: cruzain (Trypanosoma cruzi, UniProt P25779); assay: biochemical; conditions: 0’ (pre-incubation time); sheet "Screening results"
Sequence (P25779 123-337 limits assumed): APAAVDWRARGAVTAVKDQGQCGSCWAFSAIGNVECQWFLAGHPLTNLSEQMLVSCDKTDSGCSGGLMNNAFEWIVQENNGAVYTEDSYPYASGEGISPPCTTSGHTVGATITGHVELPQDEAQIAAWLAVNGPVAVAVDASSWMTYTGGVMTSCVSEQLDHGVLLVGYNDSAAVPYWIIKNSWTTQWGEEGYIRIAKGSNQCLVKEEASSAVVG
Provide the reported Cruzain 0’ Inhibition of each item.

Fill in Cruzain 0’ Inhibition for record CNC(=O)CNc1nc(-c2ccccn2)nc2scc(-c3ccccc3)c12
-6%

Answer with the recorded Cruzain 0’ Inhibition of CN1CCN(c2nccc3[nH]c(-c4cccc(F)c4)cc23)CC1 only.
-15%

In one line, give reported Cruzain 0’ Inhibition of the entry CC(C)(C)c1cc(C(=O)N2CCN(c3nccnc3C#N)CC2)n(Cc2ccccc2)n1 .
-0.2%

Tell me measured Cruzain 0’ Inhibition for CCS(=O)(=O)N(Cc1ccco1)Cc1cc2ccc(C)cc2[nH]c1=O please.
6.5%

Supply reported Cruzain 0’ Inhibition belonging to this molecule: COc1cc(OC)cc(C(=O)NCC2Cc3cc(Cl)cc(-c4ccncc4)c3O2)c1 (stereo not drawn)
1.1%

Fill in Cruzain 0’ Inhibition for record CCCc1ccc(S(=O)(=O)Nc2ccc(CN3CCN(CC4CC4)CC3)cc2)cc1
4.4%

Identify measured Cruzain 0’ Inhibition corresponding to CC1=Nc2ccc(Cl)cc2C(O)(c2ccc(C)cc2)N1CCN1CCCCC1 (stereo not drawn)
-4.5%

Return Cruzain 0’ Inhibition for the following molecule: CC(C)(CN)c1nc(-c2ccc(Cl)c(O)c2)c(-c2ccnc(N)n2)[nH]1
5%

Input COc1cncc(-c2cncc(N3CCN(c4ccncc4)CC3)n2)c1 , output reported Cruzain 0’ Inhibition.
3.8%

====

Please go through the items and note down their Cruzain Inhibition 0’.
target: cruzain (Trypanosoma cruzi, UniProt P25779); assay: biochemical; conditions: 0’ (no pre-incubation); sheet Screening results;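 further: at 5 µM compound concentration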
Reply numerically in %, unit not repeated.

Entry CC(C)C(C(=O)Nc1ccc(S(=O)(=O)N(C)C)cc1)c1ccc(Cl)cc1 (centres unmarked) [MMV020391] needs its Cruzain Inhibition 0’ filled in; supply it.
-1.5

State, in one line, measured Cruzain Inhibition 0’ of c1coc(CNc2nc(N3CCCCC3)nc3ccccc23)c1 [MMV676401]
4.6

Report measured Cruzain Inhibition 0’; entry is CCC(=O)Nc1ccccc1C(=O)Nc1ccccn1 [MMV202553]
15

Report Cruzain Inhibition 0’ for Cc1ccc2c(c1C)NC(=O)C21NN=C(c2ccccc2)S1 (centres unmarked) [MMV019189]
-17

Specify Cruzain Inhibition 0’ for Cc1cccc(-c2nc(Nc3ccncn3)c3sccc3n2)n1 [MMV688122] and stop.
-1.4

====

target: UniProt:P25779; experiment: biochemical; details: 10’ (pre-incubation); sheet Screening results
QUANTITY NAME: Cruzain Inhibition 10’ (%)
Use % as the unit, but write only the number.

Tell us which Cruzain Inhibition 10’ value is on record for CN1CCN(S(=O)(=O)c2ccc(-c3ccc4c(Nc5ncc(Cl)cn5)ccnc4c3)cc2)CC1 [MMV688283]
31

Return reported Cruzain Inhibition 10’. Input compound: Cc1cc2ccccc2n1CC(=O)N1CC(C(=O)N2CCCCC2)Oc2ccccc21 (stereo not shown) [MMV020520]
3.4

Tell me Cruzain Inhibition 10’ reported for CC1(O)CC(c2nc(-c3ccc4ccc(-c5ccccc5)nc4c3)c3c(N)nccn23)C1 (stereo not shown) [MMV676605]
-0.9

Could you please provide reported Cruzain Inhibition 10’ for CCOC(=O)c1cc(-c2csc(Nc3c(C)cc(C)cc3C)n2)on1 [MMV676461] ? Thanks!
4

Give Cruzain Inhibition 10’ for Cc1[nH]c2ccccc2c1C(c1cccs1)N1CCN(C)CC1 (stereo not shown) [MMV688768]
9

Give Cruzain Inhibition 10’ for COc1ccc(C2=NN(C3CCCCCC3)C(=O)C2(C)C)cc1OCc1ccccn1 [MMV688360]
11

Give the measured Cruzain Inhibition 10’ for CC(C)(C)c1cc(C(=O)Nc2cccnc2)cc(C(=O)Nc2cccnc2)c1 [MMV020982]
-0.5

Identify Cruzain Inhibition 10’ associated with the compound CC(C)(C)OC(=O)N1CCN(c2nccc(-c3ccc(-c4ccc(Cl)cc4)s3)n2)CC1 [MMV688416]
18

Read off the recorded Cruzain Inhibition 10’ for COc1ccc(-c2cc(NC(=O)c3ccc(F)cc3Cl)ccc2OC)cc1 [MMV676526]
-8

// fetch Cruzain Inhibition 10’ given entry CCN(CC)CCCCCCNc1cc(OC)cc2c(C)ccnc12 [MMV000063]
3

Indicate its recorded Cruzain Inhibition 10’; the compound in question is NCCC[C@@](N)(C(=O)O)C(F)F [MMV001625]
7

State its Cruzain Inhibition 10’: COC(=O)c1c(NC(=O)c2c(F)c(F)c(F)c(F)c2F)sc2c1CCCCC2 [MMV461553]
-24

Consider the compound Cc1noc(C)c1C(=O)N1CCCC(c2[nH]c3c(C)cccc3c2-c2ccncc2)C1 (stereo not shown) [MMV020623] and give its recorded Cruzain Inhibition 10’.
5

Return reported Cruzain Inhibition 10’. Input compound: CC(C)(C)n1nc(Cc2ccc(F)c(Cl)c2)c2c(N)ncnc21 [MMV688852]
0.5

Give the reported value of Cruzain Inhibition 10’ for this record: O=C(NCc1ccco1)N1CCN(Cc2ccc(Cl)s2)CC1 [MMV688555]
0.5

In one line, give reported Cruzain Inhibition 10’ of the entry COc1nc2ccc(Br)cc2cc1[C@@H](c1ccccc1)[C@@](O)(CCN(C)C)c1cccc2ccccc12 [MMV689758] .
10

Supply reported Cruzain Inhibition 10’ belonging to this compound: Cc1ncc(-c2ccnc(Nc3ccc(S(C)(=O)=O)cc3)n2)n1C(C)C [MMV676604]
3.2

Quote Cruzain Inhibition 10’ reported for CCc1c(C)nc(-n2nc(C)cc2NC(=O)c2ccccc2SC)[nH]c1=O [MMV676477] please.
-11

Annotate the compound CC(C(=O)Nc1ccc2oc(-c3ccncc3)nc2c1)c1ccccc1 (stereo not shown) [MMV688471] with its measured Cruzain Inhibition 10’.
15

====

molecular target: cruzain (Trypanosoma cruzi); assay: biochemical; conditions: 10’ (pre-incubation time); sheet "Screening results"
QUANTITY NAME: Cruzain 10’ Inhibition
Write the figure, then the unit, nothing else.

# return recorded Cruzain 10’ Inhibition for input CCNC(=O)C(C)Nc1nc(-c2cccnc2)nc2sc(C)c(C)c12 (stereo not drawn)
1.7%

State its Cruzain 10’ Inhibition for this molecule: O=C1[C@@H](Oc2ccccc2)[C@@H](c2ccc(Cl)cc2)N1CCn1cnc2c(NCc3ccccc3)ncnc21
23%

For the molecule CCCS(=O)(=O)N1CCC(CO)(Cc2ccccc2C(F)(F)F)CC1 , give its measured Cruzain 10’ Inhibition value.
-1.3%

Note down Cruzain 10’ Inhibition recorded for COc1cncc(-c2cncc(N3CCN(c4ccncc4)CC3)n2)c1
-19%

State, in one line, measured Cruzain 10’ Inhibition of N#Cc1nc(-c2ccccc2F)oc1NCCc1ccccc1
6%

Give the measured Cruzain 10’ Inhibition for COc1ccc(OC)c(NCc2ccc3nc(N)nc(N)c3c2Cl)c1
26%

Identify measured Cruzain 10’ Inhibition corresponding to COc1ccc(-c2cnc3ccc(NCc4ccc(S(N)(=O)=O)cc4)nn23)cn1
3.6%

Please give measured Cruzain 10’ Inhibition of the following entry: C[C@H]1CS(=O)(=O)CCN1/N=C/c1ccc([N+](=O)[O-])o1
7.5%

Answer with the recorded Cruzain 10’ Inhibition of CCOc1ccc(OCC(=O)Nc2cc(C)cc(C)c2)cc1 only.
9%
